Property: MIC; scope: individual compounds
- Tested on: Staphylococcus epidermidis
- procedureText: Antibacterial activity against Staphylococcus epidermidis HK6966/08 after 48 hrs by broth microdilution method
- Type: functional
- measurementParameters: HK6966/08, 48 h
propertyLabel: MIC (µM)

INSERT INTO measurements (smilesstring, cmp, reportedmeasurement) VALUES
  ('O=[N+]([O-])c1cc(-c2nnn(CSc3nnnn3Cc3ccccc3)n2)cc([N+](=O)[O-])c1', '>', 125),
  ('COc1cccc(Cn2nnc(-c3cc([N+](=O)[O-])cc([N+](=O)[O-])c3)n2)c1', '>', 500),
  ('O=[N+]([O-])c1cc(-c2nnn(CSc3nnnn3-c3ccccc3)n2)cc([N+](=O)[O-])c1', '>', 125),
  ('O=[N+]([O-])c1cc(-c2nnnn2Cc2ccccc2)cc([N+](=O)[O-])c1', '=', 62.5),
  ('COc1ccc(Cn2nnnc2-c2cc([N+](=O)[O-])cc([N+](=O)[O-])c2)cc1', '=', 62.5),
  ('O=[N+]([O-])c1cc(-c2nnn(CSc3nnnn3-c3ccc(Cl)cc3)n2)cc([N+](=O)[O-])c1', '>', 125),
  ('O=[N+]([O-])c1cc(-c2nnn(Cc3ccc(Br)cc3)n2)cc([N+](=O)[O-])c1', '=', 31.2),
  ('O=[N+]([O-])c1cc(-c2nnn(Cc3ccccc3F)n2)cc([N+](=O)[O-])c1', '=', 250),
  ('O=[N+]([O-])c1cc(-c2nnn(Cc3cccc(Br)c3)n2)cc([N+](=O)[O-])c1', '=', 250);
